- Test system: LOX IMVI melanoma
- ASSAY: NCI-60 one-dose screen, 48 h
- EXPERIMENTAL_SETUP: 10 µM unless noted
Compounds without any hit were thinned out: in the full panel of roughly 83,000, 20% have a hit. Active and inactive are the calls of the source. How the source made its calls: active means growth percent below 10; inactive means the rest.
Return exactly one item of active, inactive

Query: Any idea what this test logged for CC(C)=CCC[C@](C)(O)[C@H]1CC[C@]2(C)[C@@H]1CC[C@@H]1[C@@]3(C)CCC(NC(=O)c4ccccc4C(=O)O)C(C)(C)[C@@H]3CC[C@]12C (some centres not stated) ?
Reply: inactive

Query: And "Cc1ccc(NC(=O)c2cccc(CN3CCN(C)CC3)c2)cc1Oc1ccc(-c2[nH]nc3ncnc(N)c23)cc1" ?
Reply: inactive

Query: Another compound to check: "COc1ccc(Cn2cc3c(c2-c2ccccc2)CCCc2cnoc2-3)cc1"
Reply: inactive

Query: Please give the result for "CC[C@]12C=CCN3CC[C@]4(C(=C(C(=O)OC)C1)Nc1cc5c(cc14)[C@@H]1[C@H](O5)[C@@H](O)[C@@]4(CC)CC(C(=O)OC)=C5Nc6cc(OC)ccc6[C@@]56CCN1[C@@H]46)[C@@H]32" too.
Reply: active

Query: Record: CN(C)C(=O)C1=NC(CO)C(=O)N(c2ccc(Cl)cc2)N1 (configuration not stated)
Reply: inactive

Query: Now the same for "CCc1ccc(NC(=O)N[C@@H](Cc2cccc(C)c2)C(=O)N[C@@H]2C(=O)N3CCC[C@H]3C(=O)N3CCCC[C@H]3C(=O)N[C@@H](CO)C(=O)N3C[C@H](C)C[C@H]3C(=O)O[C@H]2C)c(F)c1"
Reply: inactive

Query: Try "Cn1ccnc1C(=O)/C=C/c1ccc(C(=O)Nc2ccc(NC(=O)CCNC(=O)c3csc(Br)n3)cc2)cc1" next.
Reply: inactive

====

- System: HOP-62 NSCLC
- ASSAY: NCI-60 one-dose screen, 48 h (100 = growth as untreated, 0 = no growth, -100 = all killed)
- EXPERIMENTAL_SETUP: 10 µM unless noted
This is part of a sample that, as a whole, favours compounds with a hit. Of some 83,000 tested, about 20% had one in any assay.
Decision: growth beneath 20% gives TRUE; growth meeting or exceeding 20% gives FALSE.

Query: Please let me know if "Oc1ccc(-c2nnc(SCc3ccc(O)c4ncccc34)o2)cc1" shows growth below 20%.
Reply: TRUE

Query: Could you do the same for "NS(=O)(=O)c1ccc(Nc2nc(N/N=C/c3ccc(F)cc3)nc(Nc3ccccc3)n2)cc1" , please?
Reply: TRUE

Query: Another compound to check: "C=CCn1c(SCC(=O)Nc2cccc(C(=O)/C=C/c3cccc([N+](=O)[O-])c3)c2)nc2ccccc2c1=O"
Reply: FALSE

Query: Now consider "c1ccc(-c2c(-c3ccccc3)[n+](Cc3ccc4ccccc4c3)c(-c3ccccc3)n2Cc2ccc3ccccc3c2)cc1" and answer again.
Reply: TRUE

Query: And then "CC(=O)Nc1ccc(C)c(Nc2cc(-c3ccc(-n4cccn4)cc3)[nH]n2)c1" , what is it?
Reply: FALSE

Query: Likewise for "O=c1oc2ccc(-c3ccc(F)cc3F)cc2c(=O)n1-c1ccc(F)c(F)c1" ?
Reply: TRUE

Query: Another compound: "C#C[C@]1(O)CC[C@H]2[C@@H]3CC=C4c5sc(C6CC6)nc5CC[C@]4(C)[C@H]3CC[C@@]21C"
Reply: FALSE

Query: # repeat for C#CCOc1ccc(C(Nc2ccc(OC)cc2)c2nnnn2C2CCCCC2)cc1 (centres undefined)
Reply: FALSE
